# Target Under Test: T1, L-selectin (LS-Rg) (Homo sapiens, UniProt P14151 P14151:39-332)
# T1 chain: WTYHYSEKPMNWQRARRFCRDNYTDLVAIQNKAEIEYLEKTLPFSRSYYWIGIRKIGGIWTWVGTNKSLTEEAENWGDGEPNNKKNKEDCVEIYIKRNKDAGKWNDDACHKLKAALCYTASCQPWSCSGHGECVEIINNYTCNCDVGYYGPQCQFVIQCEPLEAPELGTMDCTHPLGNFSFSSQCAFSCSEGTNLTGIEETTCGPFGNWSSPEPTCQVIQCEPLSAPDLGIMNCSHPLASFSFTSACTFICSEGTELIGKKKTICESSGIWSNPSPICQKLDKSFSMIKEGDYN
# Assay Procedure: filter; room temp; 1.0 nM at 37 C
# Condition Info: tags: human IgG2 Fc fusion (provided by A. Varki); label: 32P; hairpin
Result Type: pKd
Answers are plain numbers, as −log10 of the molar value.

In plain terms, 183 (ssDNA) DNA: CTACCTACGATCTGACTAGCGGCATCCCTGAGTCATTACAAGGTTCTTAACGTAATGTACGCTTACTCTCATGTAGTTCC has a documented pKd of 9.77
